Recorded values, source the supplement of paper PMC10567573.

B1: SLC2A12 (parent)
chain: LTLVFFVQITGQPNILFYASTVLK

# Variants of: B1
# experiment_description: protein stability index of a GFP-peptide fusion (GPS, HEK-293T) (PSI 1-6); higher = more stable;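 also: lentivirally expressed fusions sorted by FACS into six bins by GFP to DsRed ratio, PSI derived from sequencing read proportions per bin multiplied by bin number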
# measurement_context: c terminus: a fixed tail appended
Label scheme for protein stability index: lower than 3 is -1, 3 and above is 1.

For orientation, consider the following solved cases.
T10N: -1
Q12M: 1
G11C: -1
V4L: -1
F6V: 1

Exam item: Reported protein stability index reaches at least 3 for "T10E" ?
Marked response: -1

Exam item: Reported protein stability index reaches at least 3 for "S20K" ?
Marked response: 1

Exam item: Reported protein stability index reaches at least 3 for "T21D" ?
Marked response: 1

Exam item: Reported protein stability index reaches at least 3 for "Q12T" ?
Marked response: 1

Exam item: Reported protein stability index reaches at least 3 for "Q8I" ?
Marked response: 1

Exam item: Reported protein stability index reaches at least 3 for "L1D" ?
Marked response: -1

Exam item: Reported protein stability index reaches at least 3 for "G11D" ?
Marked response: 1

Exam item: Reported protein stability index reaches at least 3 for "T21W" ?
Marked response: 1
